Molecular target: T1, 22-110-peptide (Plasmodium falciparum)
T1 construct: N-terminal CSP peptide coated at 1 ug/mL in ELISA
T1 peptide: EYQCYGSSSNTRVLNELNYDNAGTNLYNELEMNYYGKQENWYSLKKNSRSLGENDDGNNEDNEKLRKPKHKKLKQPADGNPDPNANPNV
Experiment: ELISA, peptide coated, titrated antibody

binder	binding result
MGU1 (antibody, V domains shown) VH: QVQLVESGGGVVQPGRSLRLSCAASGFAFSSYGMNWVRQAPGKGLEWVAVIWHDGTNKYYRDSVKGRFIISRDNAKNTLYLQMDSLSAEDTAMYYCAIWYLDSPDHGFDIWGRGTMVTVSS VL: QLVLTQSPSASASLGVSVTLTCTLNNGHSSNAIAWHQQQPGKGPRYLMKVNSDGSHNKGAAVPDRFSGSSSGTERHLTISSLQSDDEADYYCQAWDSGIWVFGGGTKLTVL	binds
